Data origin, for the record: patent US20240246918A1

# System: COLO 205 colorectal tumor cells
# Assay protocol: Tumor cell viability inhibition assay (CellTiter-Glo 2.0, 72 hours)
# Assay type: cell-based
# Details: Homo sapiens, COLO 205, 72 h, COLO 205 cell viability
pIC50: −log10 of the molar value.
molecules and their reported pIC50

- Molecule: "Cc1cc(-c2cc(Cl)ccc2OCCn2c(C)nc3c(c2=O)CC(N2CCCCC2)CC3)c2scc(C(=O)O)c2n1 (single isomer, unassigned) [Compound 249]"
  pIC50: "4.70 to 5.30"
- Molecule: "Cc1cc(-c2cc(Cl)ccc2OCCn2c(C)nc3c(c2=O)CC(N2CCC(C(F)F)CC2)CC3)c2scc(C(=O)O)c2n1 (centres unmarked)"
  pIC50: "> 5.30"
- Molecule: "Cc1cc(-c2cc(Cl)ccc2OCCn2c(C)nc3c(c2=O)C[C@@H](N2CCC[C@]4(C2)CC4(F)F)CC3(C)C)c2scc(C(=O)O)c2n1 (single isomer, unassigned)"
  pIC50: "4.70 to 5.30"
- Molecule: "Cc1cc(-c2cc(Cl)ccc2OCCn2c(C)nc3c(c2=O)CC(N(CC(F)(F)F)C2CCC2)CC3)c2scc(C(=O)NS(C)(=O)=O)c2n1 (centres unmarked)"
  pIC50: "> 5.30"
- Molecule: "Cc1cc(-c2cc(Cl)ccc2OCCn2c(C)nc3c(c2=O)CC(N(C)C2CCC2)CC3)c2scc(C(=O)O)c2n1 (centres unmarked)"
  pIC50: "> 5.30"
- Molecule: "Cc1cc(-c2cc(Cl)ccc2OCCn2c(C)nc3c(c2=O)C[C@@H](N2CCC(c4nc5ccc(F)cc5s4)CC2)CC3)c2scc(C(=O)O)c2n1 (single isomer, unassigned)"
  pIC50: "> 5.30"
- Molecule: "Cc1cc(-c2cc(Cl)ccc2OCCn2c(C)nc3c(c2=O)CC(N(C)CC2CC(F)(F)C2)CC3)c2scc(C(=O)O)c2n1 (centres unmarked) [Compound 96]"
  pIC50: "> 5.30"
- Molecule: "Cc1nc2c(c(=O)n1CC#Cc1ccc(Cl)cc1-c1ccnc3c(C(=O)O)csc13)CC(N1CC(F)(F)C1)CC2 (centres unmarked)"
  pIC50: "> 5.30"
- Molecule: "Cc1cc(-c2cc(Cl)ccc2OCCn2c(C)nc3c(c2=O)C[C@@](C)(N2CCC[C@@]4(C2)CC4(F)F)CC3)c2scc(C(=O)O)c2n1 (single isomer, unassigned)"
  pIC50: "4.70 to 5.30"
- Molecule: "Cc1cc(-c2cc(Cl)ccc2OCCn2c(C)nc3c(c2=O)C[C@H](N(C)C[C@H]2C[C@](C)(O)C2)CC3)c2scc(C(=O)O)c2n1 (relative stereo)"
  pIC50: "< 4.70"
- Molecule: "Cc1cc(-c2cc(Cl)ccc2OCCn2c(C)nc3c(c2=O)CC(N(C)C2CN(CC(F)(F)F)C2)CC3)c2scc(C(=O)O)c2n1 (centres unmarked)"
  pIC50: "> 5.30"

----------
# Tested on: COLO 205 colorectal tumor cells
# Assay protocol: Tumor cell viability inhibition assay (CellTiter-Glo 2.0, 72 hours)
# Format: cell-based
# Details: Homo sapiens, COLO 205, 72 h, COLO 205 cell viability

- Molecule: "Cc1cc(-c2cc(Cl)ccc2OCCn2c(C)nc3c(c2=O)CC(N(C2CC2)C2CC(F)(F)C2)CC3)c2scc(C(=O)O)c2n1 (stereo not shown) [Compound 76]"
  IC50: "< 5 µM"
- Molecule: "Cc1cc(-c2cc(Cl)ccc2OCCn2c(C)nc3c(c2=O)C[C@H](N2[C@@H]4CC[C@H]2C[C@H](OC(F)(F)F)C4)CC3)c2scc(C(=O)O)c2n1 (single isomer, unassigned) [Compound 399]"
  IC50: "< 5 µM"
- Molecule: "Cc1cc(-c2cc(Cl)ccc2OCCn2c(C)nc3c(c2=O)CC(N(C)CC2(C)COC2)CC3)c2scc(C(=O)O)c2n1 (stereo not shown) [Compound 18]"
  IC50: "< 5 µM"
- Molecule: "Cc1cc(-c2cc(Cl)ccc2OCCn2c(C)nc3c(c2=O)CC(N(C)C2CC2)CC3)c2scc(C(=O)NS(=O)(=O)c3ccncc3)c2n1 (single isomer, unassigned) [Compound 284]"
  IC50: "5 to 20 µM"
- Molecule: "Cc1cc(-c2cc(Cl)ccc2OCCn2c(C)nc3c(c2=O)C[C@](C)(N2CCC[C@]4(C2)CC4(F)F)CC3)c2scc(C(=O)O)c2n1 (single isomer, unassigned) [Compound 553]"
  IC50: "< 5 µM"
- Molecule: "Cc1cc(-c2cc(Cl)ccc2OCCn2c(C)nc3c(c2=O)C[C@@H](N2CCCC[C@@H]2C)CC3)c2scc(C(=O)O)c2n1 (single isomer, unassigned) [Compound 409]"
  IC50: "> 20 µM"
- Molecule: "Cc1nc2c(c(=O)n1CC#Cc1ccc(Cl)cc1-c1ccnc3c(C(=O)NS(C)(=O)=O)csc13)CC(N(C)C1CC1)CC2 (stereo not shown) [Compound 271]"
  IC50: "< 5 µM"
